Target: ADP-ribosyl cyclase/cyclic ADP-ribose hydrolase 1 (Mus musculus)
Sequence (P56528 whole entry): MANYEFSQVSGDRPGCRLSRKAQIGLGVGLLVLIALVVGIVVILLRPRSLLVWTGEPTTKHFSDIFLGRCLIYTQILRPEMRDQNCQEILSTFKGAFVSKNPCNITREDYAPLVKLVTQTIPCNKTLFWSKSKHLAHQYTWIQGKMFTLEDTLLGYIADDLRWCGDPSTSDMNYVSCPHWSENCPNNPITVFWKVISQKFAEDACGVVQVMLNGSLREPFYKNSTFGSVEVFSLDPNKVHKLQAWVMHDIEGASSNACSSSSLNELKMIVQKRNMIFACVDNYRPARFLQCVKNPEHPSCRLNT
Experiment: Inhibition of mouse his tagged CD38 using N6-etheno-NAD as substrate by fluorescence microplate reader assay
Measurement label: pIC50
Scale note: pIC50 = -log10(concentration in M).

## Input Dear colleague, I am looking for the recorded pIC50 of the following molecule: COCCO[C@H]1CC[C@H](NC(=O)c2cc(-c3cncs3)nc3[nH]ccc23)CC1
## Output 8.52

* * *

Test: AUC in non-human primates at 1 mg/kg, iv
Type: ADME, organism-based
Parameters: dose 1 mg/kg, route iv
Conditions: in vivo
Measurement label: AUC
Your reply should be a number followed by the unit it is expressed in.

## Input Entry under review: COCCO[C@H]1CC[C@H](NC(=O)c2cc(-c3cncs3)nc3[nH]ccc23)CC1 . Reported AUC?
## Output 1670 ng·h/mL

* * *

Assay: In vivo inhibition of CD38 in po dosed mouse assessed as reduction in ADPR level in blood mg/kg measured after 6 hrs
Assay type: functional, organism-based
Measurement label: EC50 (nM)
Express it in nM; write the number only.

## Input For COCCO[C@H]1CC[C@H](NC(=O)c2cc(-c3cncs3)nc3[nH]ccc23)CC1 , what is its reported EC50?
## Output 40

* * *

Biological target: hERG (Homo sapiens)
Sequence (Q12809 whole entry): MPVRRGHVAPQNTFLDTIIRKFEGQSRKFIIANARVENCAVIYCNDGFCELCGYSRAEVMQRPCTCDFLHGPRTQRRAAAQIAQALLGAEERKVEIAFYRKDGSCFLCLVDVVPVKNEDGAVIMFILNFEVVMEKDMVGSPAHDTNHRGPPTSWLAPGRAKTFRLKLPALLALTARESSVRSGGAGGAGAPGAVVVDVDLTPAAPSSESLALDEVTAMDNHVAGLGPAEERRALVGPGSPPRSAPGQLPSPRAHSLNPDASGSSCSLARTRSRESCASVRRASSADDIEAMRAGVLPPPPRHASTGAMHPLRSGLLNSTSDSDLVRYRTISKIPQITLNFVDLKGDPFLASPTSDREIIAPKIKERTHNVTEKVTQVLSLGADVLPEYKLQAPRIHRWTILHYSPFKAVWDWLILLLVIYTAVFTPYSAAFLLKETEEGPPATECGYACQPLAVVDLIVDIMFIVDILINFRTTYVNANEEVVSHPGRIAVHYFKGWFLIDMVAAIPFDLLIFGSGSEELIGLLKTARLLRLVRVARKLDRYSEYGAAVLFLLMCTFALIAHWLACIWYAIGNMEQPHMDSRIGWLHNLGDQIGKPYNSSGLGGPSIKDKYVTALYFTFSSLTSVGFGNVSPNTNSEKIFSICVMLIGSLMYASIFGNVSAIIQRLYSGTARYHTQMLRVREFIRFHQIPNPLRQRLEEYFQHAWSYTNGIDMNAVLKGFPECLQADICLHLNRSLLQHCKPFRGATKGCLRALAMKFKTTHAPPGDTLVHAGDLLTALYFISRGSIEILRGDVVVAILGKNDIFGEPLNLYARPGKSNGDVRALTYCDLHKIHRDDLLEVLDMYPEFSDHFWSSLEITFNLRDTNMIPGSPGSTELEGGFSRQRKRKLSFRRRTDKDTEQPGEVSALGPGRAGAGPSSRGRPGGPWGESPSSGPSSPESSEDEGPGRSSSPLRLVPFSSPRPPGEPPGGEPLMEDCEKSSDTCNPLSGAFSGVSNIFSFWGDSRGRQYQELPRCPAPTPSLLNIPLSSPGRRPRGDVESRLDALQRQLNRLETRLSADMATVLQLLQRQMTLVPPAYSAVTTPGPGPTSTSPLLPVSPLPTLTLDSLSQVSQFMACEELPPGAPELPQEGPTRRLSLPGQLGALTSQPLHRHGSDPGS
Assay: Inhibition of hERG (unknown origin) at 10 uM by patch clamp method
Assay type: toxicity
Measurement label: inhibition at 10 µM

## Input inhibition at 10 µM for COCCO[C@H]1CC[C@H](NC(=O)c2cc(-c3cncs3)nc3[nH]ccc23)CC1 ?
## Output < 10%

* * *

Assay: Apparent permeability of compound across basolateral to apical side in human Caco-2 cells
Format: ADME, cell-based
Measurement label: Papp B→A

## Input Would you mind telling me what Papp B→A value was observed for COCCO[C@H]1CC[C@H](NC(=O)c2cc(-c3cncs3)nc3[nH]ccc23)CC1 ?
## Output 29.6 ×10⁻⁶ cm/s

* * *

Biological target: CYP1A2 (Homo sapiens, UniProt P05177)
Sequence (P05177 whole entry): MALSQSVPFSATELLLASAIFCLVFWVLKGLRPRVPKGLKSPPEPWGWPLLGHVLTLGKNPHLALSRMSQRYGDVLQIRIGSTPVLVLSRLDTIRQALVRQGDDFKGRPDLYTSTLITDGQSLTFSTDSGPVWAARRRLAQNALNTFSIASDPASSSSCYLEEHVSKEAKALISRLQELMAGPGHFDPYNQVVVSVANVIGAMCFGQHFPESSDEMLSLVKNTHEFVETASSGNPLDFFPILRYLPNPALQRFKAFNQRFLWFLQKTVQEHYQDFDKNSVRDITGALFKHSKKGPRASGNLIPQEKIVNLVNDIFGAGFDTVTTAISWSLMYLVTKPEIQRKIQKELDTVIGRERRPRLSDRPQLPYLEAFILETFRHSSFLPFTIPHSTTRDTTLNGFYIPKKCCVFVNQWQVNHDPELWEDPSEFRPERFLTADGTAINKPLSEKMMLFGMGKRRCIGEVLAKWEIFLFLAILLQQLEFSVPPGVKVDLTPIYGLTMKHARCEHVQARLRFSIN
Assay: Inhibition of CYP1A2 (unknown origin) at 10 uM relative to control
Format: ADME
Measurement label: inhibition at 10 µM

## Input GET /values?readout=inhibition at 10 µM&system=CYP1A2 (Homo sapiens, UniProt P05177)&item= COCCO[C@H]1CC[C@H](NC(=O)c2cc(-c3cncs3)nc3[nH]ccc23)CC1
## Output < 15%
